Test system: SK-MEL-2
Test: NCI tumour cell line growth inhibition, 48 h
Calls of active or inactive are those of the source. Rule as the data show it: active = GI50 up to about 1.1 µM and inactive = higher.
measured.attribute: GI50

| compound | measured.attribute | data.value |
| --- | --- | --- |
| O=C(Nc1nnc(-c2ccccc2)o1)C(SC(=S)N1CCCC1)c1ccccc1 (configuration not stated) | GI50 | 25.5 µM (inactive) |
| C=C1CC2(CC(c3ccccc3Cl)OC(c3ccccc3Cl)C2)OC1=O (configuration not stated) | GI50 | 3.43 µM (inactive) |
| CC1CCC2(NC1)OC1CC3[C@@H]4CC=C5C=CCC[C@]5(C)C4CC[C@]3(C)C1C2C (some centres not stated) | GI50 | 19 µM (inactive) |
| C[C@@H]1CC[C@]2(C(=O)O)CC[C@]3(C)C(=CC[C@@H]4[C@@]5(C)CC[C@H](O)C(C)(C)[C@@H]5CC[C@]43C)[C@@H]2[C@]1(C)O | GI50 | 17.1 µM (inactive) |
| CCC1C(c2cc(OC)c(OC)c(OC)c2)c2cc3c(cc2OC1N1CCOCC1)OCO3 (configuration not stated) | GI50 | 14.7 µM (inactive) |
| CC(=O)c1ccc(Nc2nc3ccccc3c3occc23)cc1 | GI50 | 14.6 µM (inactive) |
| Nc1nc(N)c(C2=CCN(Cc3ccccc3)CC2)c(=O)[nH]1 | GI50 | > 100 µM (inactive) |
| OC1CN(OC/C=C/c2ccccc2)CC(O)C1O (configuration not stated) | GI50 | > 100 µM (inactive) |
| COCCOCOc1ccc(OCc2ccccc2)cc1 | GI50 | > 82.6 µM (inactive) |
| CC1=C(C(=O)Nc2ccccc2)C(c2ccc(N(C)C)cc2)C(C(=O)Nc2ccccc2)=C(C)N1 | GI50 | > 70.1 µM (inactive) |
| NC(=O)CC[C@H]1C(=O)N=C(N)N1C(=O)OCc1ccccc1 | GI50 | > 100 µM (inactive) |
| N#Cc1c(SCc2ccccc2)nc(-c2ccccc2)[nH]c1=S | GI50 | 16.7 µM (inactive) |
| Cn1c(=O)cc(NCCc2ccccc2)[nH]c1=O | GI50 | 51.1 µM (inactive) |
| c1ccc(/C(=N/Nc2cnccn2)c2ncccn2)cc1 | GI50 | > 100 µM (inactive) |
| CC(C)C[C@H](NC(=O)[C@@H](Cc1cccc2ccccc12)NC(=O)N1CCOCC1)B(O)O | GI50 | 3.33 µM (inactive) |
| COC(=O)C1=C(C(=O)OC)N(c2ccc(OC)cc2[N+](=O)[O-])C(c2ccc(C)cc2)=CC1c1ccc(OC)cc1OC (configuration not stated) | GI50 | 29.6 µM (inactive) |
| C[Si]12OCCCN(CCO1)CCO2 | GI50 | > 100 µM (inactive) |
| CCOC(=O)C1CCC/C1=N\NC(=N)N.Cc1cc(O)c(C(C)C)cc1S(=O)(=O)O (configuration not stated) | GI50 | > 100 µM (inactive) |
| O=C1c2ccccc2N1C(=O)c1ccccc1[N+](=O)[O-] | GI50 | 90.8 µM (inactive) |
| C1=CC(=P(c2ccccc2)(c2ccccc2)c2ccccc2)C=C1 | GI50 | 13.3 µM (inactive) |
| CCCC1c2c(ccc3ccccc23)Oc2ccc3ccccc3c21 | GI50 | 20.3 µM (inactive) |
| COc1cc2c(cc1OC)C(C1(O)CCCCC1)NCC2 (configuration not stated) | GI50 | > 100 µM (inactive) |
| C(=C\C(Sc1ccccc1)c1ccccc1)/NNC1=NN=C(c2ccccc2)C(c2ccccc2)N1 (configuration not stated) | GI50 | 74 µM (inactive) |
| COc1ccc(C2ON(c3ccccn3)CC=C2C)cc1 (configuration not stated) | GI50 | > 100 µM (inactive) |
| CN(C)C(n1cc2c(c1)-c1ccc(Cl)cc1C(c1ccccc1F)=NC2)n1cc2c(c1)-c1ccc(Cl)cc1C(c1ccccc1F)=NC2 | GI50 | > 100 µM (inactive) |
| N#Cc1cccc(Nc2ccccc2SSc2ccccc2Nc2cccc(C#N)c2)c1 | GI50 | > 10 µM (inactive) |
| CC1=CC2=C(C#N)C(=O)OC2(C)C(c2ccccc2)C1 (configuration not stated) | GI50 | > 100 µM (inactive) |
| NNc1nnc(CCCCCCCCc2nnc(NN)n2N)n1N | GI50 | 84.5 µM (inactive) |
| COc1cc2cc[n+](C)c(Cc3ccc(Oc4cc(Cc5c6cc(OC)c(OC)cc6cc[n+]5C)ccc4OC)cc3)c2cc1OC | GI50 | > 100 µM (inactive) |
| CCC(=N\NC(N)=S)/C(C)=N/O | GI50 | > 100 µM (inactive) |
| Cc1cccc(C(C)C)c1NC(=O)CCl | GI50 | 75.5 µM (inactive) |
| OC(COc1ccccc1)CN1CCCCC1 (configuration not stated) | GI50 | > 100 µM (inactive) |
| O=C(NN1C(=O)C(Cl)C1c1ccccc1Cl)c1ccccc1O (configuration not stated) | GI50 | > 100 µM (inactive) |
| CC(NCc1c(O)ccc2c(-c3ccccc3)cc(=O)oc12)C(=O)O (configuration not stated) | GI50 | > 100 µM (inactive) |
| COc1ccc(-c2nnc(-c3ccncc3)o2)cc1 | GI50 | > 100 µM (inactive) |
| c1ccc(COc2ccc3[nH]c4c5c6ccccc6nc-5c[nH]c4c3c2)cc1 | GI50 | 16.9 µM (inactive) |
| CCOC(=O)C1=C(C)N(Cc2ccccc2)C2(O)C=CC(O)=C3C(=O)c4ccccc4C(=O)C312 (configuration not stated) | GI50 | 13.9 µM (inactive) |
